- System: Intraocular Pressure
- procedure-summary: Normal Rabbit Model, IOP lowering after topical administration
- Format: in vivo, New Zealand albino rabbits
- condition-notes: Oryctolagus cuniculus; 50uL 1% topical to one eye; peak percentage effect versus the external (saline) control group; read-out: (B) 50uL 1% topical Normal Rabbit %IOP
Where a name gives a salt, the structure may show the parent alone.
value-kind: change in vivo at 1 %

molecule=OCc1cc(Cl)c(N=C2NCCN2)c(Cl)c1 system_under_test="Intraocular Pressure" value_kind="change in vivo at 1 %" result=0%
molecule=O=C(O)c1cc(Cl)c(N=C2NCCN2)c(Cl)c1 system_under_test="Intraocular Pressure" value_kind="change in vivo at 1 %" result=-4.5%
molecule="Cl.Cl.Nc1cc(Cl)c(N=C2NCCN2)c(Cl)c1 [Dihydrochloride]" system_under_test="Intraocular Pressure" value_kind="change in vivo at 1 %" result=-1.3%
molecule="N#Cc1cc(Cl)c(N=C2NCCN2)c(Cl)c1 [Hydrochloride]" system_under_test="Intraocular Pressure" value_kind="change in vivo at 1 %" result=-2.3%
molecule="CC(=O)Nc1cc(Cl)c(N=C2NCCN2)c(Cl)c1.Cl [Hydrochloride]" system_under_test="Intraocular Pressure" value_kind="change in vivo at 1 %" result=-19%
molecule=CCOC(=O)c1cc(Cl)c(N=C2NCCN2)c(Cl)c1 system_under_test="Intraocular Pressure" value_kind="change in vivo at 1 %" result=-5.6%
molecule=O=CNc1cc(Cl)c(N=C2NCCN2)c(Cl)c1 system_under_test="Intraocular Pressure" value_kind="change in vivo at 1 %" result=-15.6%
molecule="Clc1cccc(Cl)c1N=C1NCCN1 [reference compound]" system_under_test="Intraocular Pressure" value_kind="change in vivo at 1 %" result=-13.9%

----------
This listing pairs compounds with measured (A) 50uL 0.5% topical Laser-Monkey %IOP.
- Test system: Intraocular Pressure
- procedure-summary: Rhesus Monkey - Laser Model, IOP lowering after topical administration
- Format: in vivo, Rhesus monkeys
- condition-notes: laser-induced ocular hypertension, peak effect, percentage change in the hypertensioned eye versus the same eye at the same hour the previous day
value-kind: (A) 50uL 0.5% topical Laser-Monkey %IOP (%)

compound=Cl.Oc1cc(Cl)c(N=C2NCCN2)c(Cl)c1 quantitative_readout=-23.0
compound=CC(=O)Nc1cc(Cl)c(N=C2NCCN2)c(Cl)c1.Cl quantitative_readout=-4.0
compound="Clc1cccc(Cl)c1N=C1NCCN1 [reference compound]" quantitative_readout=-32.0
compound=OCc1cc(Cl)c(N=C2NCCN2)c(Cl)c1 quantitative_readout=-17
compound=O=CNc1cc(Cl)c(N=C2NCCN2)c(Cl)c1 quantitative_readout=-26.0
compound=Cl.Cl.Nc1cc(Cl)c(N=C2NCCN2)c(Cl)c1 quantitative_readout=-21.0
